Data credit: patent US9808477B2

# Test system: A549/T cells (PTX-resistant, ABCB1-overexpressing NSCLC cells)
# PROCEDURE DETAILS: SRB cell cytotoxicity / MDR reversal assay
# Type: cell-based, human
# MEASUREMENT CONTEXT: drug +9 μM nobiletin (N)
QUANTITY KIND: pIC50
Numbers only, as −log10 of the molar value.

# compound CC(=O)O[C@H]1C(=O)[C@@]2(C)[C@H]([C@H](OC(=O)c3ccccc3)[C@]3(O)C[C@H](OC(=O)[C@H](O)[C@@H](NC(=O)c4ccccc4)c4ccccc4)C(C)=C1C3(C)C)[C@]1(OC(C)=O)CO[C@@H]1C[C@@H]2O [Paclitaxel] ; its pIC50 = 7.52
